# Test system: Yap1 mRNA
# procedure-text: Antisense inhibition of human Yap1 in A-431 cells by cEt gapmers, single dose (Example 4, RTS4814)
# Assay type: cell-based
# recorded-conditions: Table 14; A-431 cells, 5,000 cells per well, free uptake, 2,000 nM, approximately 48 hours; RTS4814; normalized to RIBOGREEN; Yap1 mRNA relative to untreated control; * = targets amplicon region of primer probe set
Strand notation (5' to 3'): a small letter for the sugar, then the base; units joined by * are phosphorothioate-linked, units joined directly phosphodiester-linked; [ ] holds rarer units or linkages, { } end groups; capitals alone tell only the bases. k = constrained ethyl (cEt); [5mC] = 5-methylcytosine; d = 2'-deoxy (DNA)
Decision: YAP1 (% UTC) >= 30 % UTC yields yes (1), all other cases yield no (0).

Field: example entries. Status: answers known.
1075136 (antisense k[5mC]*kT*kA*dG*dA*dA*dT*dA*dT*dT*dA*dA*dA*kG*kG*kG) [Compound 1075136]; yes (1)
1076512 (antisense k[5mC]*kA*kT*dA*dA*dA*d[5mC]*d[5mC]*dA*dT*dT*dA*dA*kG*kT*kG) [Compound 1076512]; yes (1)
1075744 (kT*kT*k[5mC]*dG*dG*dG*dT*dT*dA*dG*d[5mC]*dA*dG*kA*k[5mC]*kT; antisense) [Compound 1075744]; no (0)
1075968 (kT*kA*kT*dT*dT*dA*dA*dG*d[5mC]*d[5mC]*dA*dA*dA*k[5mC]*k[5mC]*kG; antisense) [Compound 1075968]; no (0)
1074240 (antisense k[5mC]*kT*kG*dG*d[5mC]*dA*dG*dA*dG*dG*dT*dA*d[5mC]*kA*kT*k[5mC]) [Compound 1074240]; no (0)
1076224 (kT*kA*kT*dA*dA*dA*d[5mC]*d[5mC]*dT*dT*dG*d[5mC]*dT*kA*k[5mC]*kA; antisense) [Compound 1076224]; yes (1)
1074560 (antisense k[5mC]*k[5mC]*kA*dA*dT*d[5mC]*dG*dA*dG*dA*d[5mC]*dT*dT*kA*kA*kA) [Compound 1074560]; no (0)
1075168 (antisense k[5mC]*kA*kT*d[5mC]*dA*dA*dA*dA*dT*dT*dT*d[5mC]*dA*k[5mC]*kG*kA) [Compound 1075168]; yes (1)

Determine whether this substance has YAP1 (% UTC) no lower than 30 % UTC: 1074976 (antisense kT*kT*k[5mC]*dT*dA*dT*dT*dG*dG*dA*dA*dG*dA*k[5mC]*k[5mC]*kA) [Compound 1074976]
yes (1)

Determine whether this substance has YAP1 (% UTC) no lower than 30 % UTC: 1074528 (k[5mC]*kT*kG*d[5mC]*d[5mC]*d[5mC]*d[5mC]*dA*dA*d[5mC]*d[5mC]*dA*dG*kA*kT*kT; antisense) [Compound 1074528]
no (0)

* * *

# procedure-text: Tolerability in Balb/c mice, body and organ weights (Example 14)
# Format: in vivo
# recorded-conditions: male Balb/c mice, 50 mg/kg s.c. twice a week for four weeks (8 treatments), measured on day 25
Strand notation (5' to 3'): a small letter for the sugar, then the base; units joined by * are phosphorothioate-linked, units joined directly phosphodiester-linked; [ ] holds rarer units or linkages, { } end groups; capitals alone tell only the bases. k = constrained ethyl (cEt); [5mC] = 5-methylcytosine; d = 2'-deoxy (DNA)
Below: a set of entries, each annotated with reported body weight.
Field: value (include unit after the number)

Solved entries (count: 2):
958622 (kG*kA*kT*dA*dT*dT*d[5mC]*d[5mC]*dG*d[5mC]*dA*dT*dT*kG*k[5mC]*k[5mC]; antisense) [compound 958622]; 23 g
958534 (kT*kT*k[5mC]*dA*dG*d[5mC]*dA*dT*dA*dG*dA*dA*dG*kT*kA*kG; antisense) [compound 958534]; 22 g

Using the record for 958739 (kA*kG*k[5mC]*dA*dA*dT*dA*dG*dA*dG*dT*dA*dA*k[5mC]*k[5mC]*kA; antisense) [compound 958739] , report its body weight.
24 g
